experiment: in vivo; parameters: species or system nude mice (BALB/c nu/nu); conditions: mouse, in vivo; intravenous, continuous 5 days, nude mice; maximum dose at which no animal was dead within 2 weeks; read-out: Maximum tolerated dose
Parameter measured: MTD at 336 h (mg/kg/day)
Give bare numbers, in mg/kg/day.

[
  {
    "Molecule": "CC(C)CCCCCCCCCC(=O)NCC(=O)N[C@@H]1[C@@H](O)[C@@H](O)[C@@H](Nc2ncnc3[nH]cnc23)O[C@H]1C(O)CO (stereo partly drawn)",
    "Reading": 6
  },
  {
    "Molecule": "O=C(CCCCCCCCCCCCCl)NCC(=O)N[C@@H]1[C@@H](O)[C@@H](O)[C@@H](Nc2ncnc3[nH]cnc23)O[C@H]1C(O)CO (stereo partly drawn)",
    "Reading": 12
  },
  {
    "Molecule": "O=C(CCCCCCCCCCI)NCC(=O)NC1C(O)C(O)C(Nc2ncnc3[nH]cnc23)OC1C(O)CO (stereo not drawn)",
    "Reading": 24
  }
]

Field: MTD at 336 h. Fill in for each record below.
1. CCCCCCCC/C=C/C=C/C(=O)NCC(=O)N[C@@H]1[C@@H](O)[C@@H](O)[C@@H](Nc2ncnc3[nH]cnc23)O[C@H]1C(O)CO (stereo partly drawn)
2. O=C(CCCCCCCCCCCCCF)NCC(=O)N[C@@H]1[C@@H](O)[C@@H](O)[C@@H](Nc2ncnc3[nH]cnc23)O[C@H]1C(O)CO (stereo partly drawn)
3. CCCCCCCCCCCCCCC(Cl)C(=O)NCC(=O)NC1C(O)C(O)C(Nc2ncnc3[nH]cnc23)OC1C(O)CO (stereo not drawn)

1. 18
2. 6
3. 24
